biological target: SARS-CoV-2 Wuhan-Hu-1 RBD (SARS-CoV-2, Wuhan-Hu-1 (GenBank …, UniProt P0DTC2)); assay: cell-based or functional assay
observable: neutralisation IC50, Wuhan-Hu-1 pseudovirus (µg/mL)
Give bare numbers, in µg/mL.

Give its neutralisation IC50, Wuhan-Hu-1 pseudovirus value. Item: JR088 (antibody, V domains shown) VH: QVQLQQSGPGLVKPSQTLSLTCAISGDSVSSDSAAWNWIRQSPSRGLEWLGRTYYRSKWSNDYEVSVKSRITINPDTSKNQFSLQLNSVTPEDTAVYYCAKQQLVLDDAFDIWGQGTMVTVSS VL: QSALTQPRSVSGSPGQSVTISCTGTSSDVGGHNYVSWYEQHPGKAPKLMMYDVSKRPSGVPDRFSGSKSGNTASLTISGLQAEDEADYYCCSYAGSYIWVFGGGTKLTVL
0.0381
